test_name: Binding affinity to Mg2+ ion in HEPES buffer at pH 7.2
Format: physicochemical
Ka listing for selected molecules.
Lab book: enter the figure in ×10⁴ /M, no units written.

INSERT INTO results (sample_smiles, units, observed_measurement) VALUES
  ('CN1C(=O)C(=C(Nc2ccccc2N)c2ccccc2)C(=O)N(C)C1=O', '×10⁴ /M', 2.41);

Consider the additional molecule presented here.
q: For the molecule "CN1C(=O)C(=C(/C=C/c2ccccc2)Nc2ccccc2N)C(=O)N(C)C1=O" , give its reported Ka.
a: 2.7

* * *

test_name: Binding affinity to Mg2+ ion in HEPES buffer at pH 7.2
Assay type: physicochemical
assay_readout: Ka (×10⁶ /M)
Lab book: enter the figure in ×10⁶ /M, no units written.

INSERT INTO assay_data (sample_smiles, observed_measurement) VALUES
  ('CN1C(=O)C(=C(NNC(=C2C(=O)N(C)C(=O)N(C)C2=O)c2ccccc2)c2ccccc2)C(=O)N(C)C1=O', 1.11);

q: For the molecule "CN1C(=O)C(=CNc2ccccc2C(=O)O)C(=O)N(C)C1=O" , give its reported Ka.
a: 3.6

Recorded values, source ChEMBL document CHEMBL1154883.
